Protocol Description: small-molecule microarray binders of probe aNog, primary screen, biochemical, biotinylated probe, 635/667 nm fluorescence (AID 1115);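 further: probe is biotinylated aNog protein used at 0.15 µg/mL for 1 h at 4 C; z-score combines 667 nm fluorescence of each spot with its signal to noise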
Condition Description: higher = more signal
Readout Type: composite z-score

// worked examples, composite z-score included
Compound	composite z-score
CC(=O)OC[C@H]1O[C@H](CC=NO[C@@H](C)c2cn([C@H](CO)Cc3ccccc3)nn2)C=C[C@@H]1OC(C)=O	0.158
CC(CCN1CCCc2nc(C)c(C)cc21)=NOC[C@@H](C)[C@H](OCc1ccccc1)C(C)C	-0.255
COc1ccc(O[C@H]2C=C[C@@H](c3ccccc3)O[C@@H]2CON=C(C)CCN2CCCc3nc(C)c(C)cc32)cc1	-0.158
CCOC(=O)[C@H](Cc1ccccc1)NC(=O)CCC1CC(OC(=O)NCc2cccc3ccccc23)CC2(CCCC(COC(=O)NCCc3ccccc3OC)O2)O1 (some centres not stated)	-0.138
C=CC[C@@H]1C=C[C@H](ON=C(C)CCN2CCCc3nc(C)c(C)cc32)[C@@H](CO)O1	0.525
COc1cccc([C@H]2Oc3ccc(OC)cc3C(=NOCC[C@@H]3C=C[C@H](OC(C)=O)[C@@H](COC(C)=O)O3)[C@@H]2O)c1	0.197

Shifting focus to the compound that follows.
-- ask What measured composite z-score goes with C#CCCCON=C1C[C@@H](O)[C@@H](O)[C@@H]2[C@@H]3C(=O)N(C4CCCCC4)C(=O)[C@@H]3CC[C@@H]12 ?
-- reply -0.494

* * *

System: wheat germ agglutinin (Triticum aestivum), Alexa647-labelled
Protocol Description: wheat germ agglutinin binders on compound microarrays, profiling panel, artefact control for SMM control-protein annotation, biochemical, small-molecule microarray, 635/667 nm fluorescence (AID 1140);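 further: score merges 667 nm feature emission with signal to noise over triplicate slides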
Condition Description: WGA-A647 binding, 635 nm fluorescence, higher = more signal
Please mark criterion met if the recorded composite z-score is equal to or greater than 0.2, and criterion not met if it falls below.

Compound	Class Label
CO[C@H]1C[C@@H]2C[C@H](O)CC(CC(=O)O[C@@H](C=CCC(C)C)C[C@@H]3CC[C@H](C)[C@@H](C1)O3)O2	criterion not met

-- ask Say whether C[C@H]1CC[C@H]2C(=O)O[C@H](CO)CN2[C@@H]1c1ccc(Br)cc1 shows composite z-score of 0.2 or more.
-- reply criterion not met

* * *

Test system: Fibrinogen (Alexa647-labelled)
Protocol Description: fibrinogen binders on compound microarrays, profiling panel, artefact control for SMM control-protein annotation, biochemical, small-molecule microarray, 635/667 nm fluorescence (AID 1131);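 further: z-score merges 667 nm fluorescence with per-spot signal-to-noise over triplicate slides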
Condition Description: fibrinogen-A647 binding fluorescence, higher = more signal
Recorded composite z-score, one value per entry.
Enter the number alone.

// worked examples, composite z-score included
Compound	Target Or System	composite z-score
C=CC[C@@H]1C=C[C@H](ON=CC[C@@H]2C=C[C@H](OC(C)=O)[C@@H](COC(C)=O)O2)[C@@H](CO)O1	Fibrinogen (Alexa647-labelled)	0.991
COC(=O)C1=C(C)N(Cc2ccccc2)C2=C3C(=O)OCC[C@@H]3[C@@](O)(C(=O)OC)C(=O)N2[C@@H]1c1ccccc1	Fibrinogen (Alexa647-labelled)	0.332
CC(C)[C@H](NC(=O)OC(C)(C)C)[C@@H](O)CC(=O)C(C)(C)C	Fibrinogen (Alexa647-labelled)	0.0622

-- ask What measured composite z-score goes with COc1ccc(COC(=O)NN=C2C[C@@H](O)[C@@H](O)[C@@H]3[C@@H]4C(=O)N(Cc5ccc6c(c5)OCO6)C(=O)[C@@H]4CC[C@H]23)cc1 ?
-- reply -0.261
